Known pIC50 of a selection of compounds
# system-tested: Epidermal growth factor receptor (Homo sapiens)
# Sequence (P00533 whole entry): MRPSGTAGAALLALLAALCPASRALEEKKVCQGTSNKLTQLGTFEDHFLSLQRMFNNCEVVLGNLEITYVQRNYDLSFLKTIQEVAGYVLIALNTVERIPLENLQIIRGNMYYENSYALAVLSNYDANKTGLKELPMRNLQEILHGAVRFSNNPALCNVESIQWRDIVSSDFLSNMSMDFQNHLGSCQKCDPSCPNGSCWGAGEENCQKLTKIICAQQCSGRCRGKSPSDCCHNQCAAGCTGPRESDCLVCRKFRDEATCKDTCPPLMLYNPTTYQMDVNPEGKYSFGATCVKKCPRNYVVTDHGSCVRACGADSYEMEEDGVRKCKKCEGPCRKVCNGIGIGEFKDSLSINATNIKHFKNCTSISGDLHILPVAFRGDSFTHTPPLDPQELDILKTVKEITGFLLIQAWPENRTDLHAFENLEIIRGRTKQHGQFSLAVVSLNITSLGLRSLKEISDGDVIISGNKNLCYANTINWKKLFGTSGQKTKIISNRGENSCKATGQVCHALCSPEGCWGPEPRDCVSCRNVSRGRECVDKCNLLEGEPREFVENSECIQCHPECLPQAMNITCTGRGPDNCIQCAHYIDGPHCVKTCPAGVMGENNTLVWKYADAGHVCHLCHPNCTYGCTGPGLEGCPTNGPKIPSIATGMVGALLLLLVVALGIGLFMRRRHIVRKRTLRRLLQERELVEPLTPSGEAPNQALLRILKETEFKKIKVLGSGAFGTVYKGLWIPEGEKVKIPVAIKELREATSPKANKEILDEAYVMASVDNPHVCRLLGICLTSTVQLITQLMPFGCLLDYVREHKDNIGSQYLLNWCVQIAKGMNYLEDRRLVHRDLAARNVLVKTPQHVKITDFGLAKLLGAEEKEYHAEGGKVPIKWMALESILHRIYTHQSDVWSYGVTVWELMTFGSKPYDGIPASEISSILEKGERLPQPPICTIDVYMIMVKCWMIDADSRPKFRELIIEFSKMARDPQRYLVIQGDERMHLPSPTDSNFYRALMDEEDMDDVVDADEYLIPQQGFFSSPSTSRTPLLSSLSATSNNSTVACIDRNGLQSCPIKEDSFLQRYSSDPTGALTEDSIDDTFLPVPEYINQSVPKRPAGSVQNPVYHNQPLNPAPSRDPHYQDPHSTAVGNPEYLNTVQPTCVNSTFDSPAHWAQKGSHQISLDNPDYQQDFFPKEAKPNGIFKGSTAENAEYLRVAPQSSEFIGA
# test-details: In vitro inhibition of intrinsic tyrosine protein kinase activity of the Epidermal growth factor receptor using […]
pIC50: −log10 of the molar value.

compound: COC(=O)c1ccc(-c2cccc(-c3ccccc3)c2O)cc1
pIC50: < 4.70

compound: COC(=O)c1ccc(-c2cc(O)cc(C(C)(C)C)c2)cc1
pIC50: < 5.00

compound: CC(C)(C)c1ccc(-c2ccc(C(=O)O)cc2)c(O)c1
pIC50: < 5.00

compound: COCOc1cc(-c2ccccc2)ccc1-c1ccc(C(=O)OCC(C)CC(C)(C)C)cc1 (stereo unspecified)
pIC50: < 4.70

compound: CC(C)(C)c1cc(O)cc(-c2ccc(C(=O)O)cc2)c1
pIC50: < 4.30

API: the following record is the query input.
What value of pIC50 has been reported for the following compound? COCOc1cc(C(C)(C)C)ccc1-c1ccc(C(=O)NCc2ccccc2)cc1
< 5.30

// provenance: ChEMBL document CHEMBL1128699
